Please go through the items and note down their DEF (Dose Enhancing Factor).
Tested on: HeLa cells
Test: Dose Enhancing Factor: potentiation of bleomycin cell growth inhibition (SRB assay)
Format: cell-based
Settings: test compound 25 μM, bleomycin 0.5 μg/ml
Give bare numbers.

Guide cases for DEF (Dose Enhancing Factor), answers given:
[
  {
    "COMPOUND": "O=c1[nH]c(CCc2ccccc2)cc2ccccc12 [Compound 2, 3-(2-Phenylethyl)-1-isoquinolinone]",
    "DEF (Dose Enhancing Factor)": 1.4
  },
  {
    "COMPOUND": "COc1cccc(Cc2cc3ccccc3c(=O)[nH]2)c1 [Compound 4, 3-(3-Methoxybenzyl)-1-isoquinolinone]",
    "DEF (Dose Enhancing Factor)": 1.2
  },
  {
    "COMPOUND": "O=c1[nH]c(Cc2cccc(O)c2)cc2ccccc12 [Compound 7, 3-(3-hydroxybenzyl)isoquinolinone]",
    "DEF (Dose Enhancing Factor)": 1.2
  },
  {
    "COMPOUND": "COc1ccc(Cc2cc3ccccc3c(=O)[nH]2)cc1 [Compound 1, 3-(4-methoxybenzyl)-1-isoquinolinone]",
    "DEF (Dose Enhancing Factor)": 1.15
  }
]

Continue with the compound presented below.
Find the recorded DEF (Dose Enhancing Factor) belonging to O=c1[nH]c(Cc2ccccc2)cc2ccccc12 [Compound 5, 3-Benzyl-1-isoquinolinone] and report it.
1.1

* * *

ENDPOINT_LABEL: melting point

Guide cases for melting point, answers given:
[
  {
    "COMPOUND": "O=c1[nH]cc(Cc2ccc(F)c(F)c2)c2ccccc12 [Compound 10, 4-(3,4-Difluorobenzyl)-1-isoquinolinone]",
    "melting point": "148 to 150 °C"
  },
  {
    "COMPOUND": "O=c1[nH]c(CCc2ccccc2)cc2ccccc12 [Compound 2, 3-(2-Phenylethyl)-1-isoquinolinone]",
    "melting point": "198 to 200 °C"
  },
  {
    "COMPOUND": "O=c1[nH]cc(Cc2ccc(F)cc2)c2ccccc12 [Compound 9, 4-(4-Fluorobenzyl)-1-isoquinolinone]",
    "melting point": "185 to 188 °C"
  },
  {
    "COMPOUND": "O=c1[nH]cc(Cc2ccccc2)c2ccccc12 [Compound 8, 4-benzyl-1-isoquinolinone]",
    "melting point": "217 to 220 °C"
  }
]

For every listed record, write down its melting point.
1. COc1ccc(Cc2cc3ccccc3c(=O)[nH]2)cc1 [Compound 1, 3-(4-methoxybenzyl)-1-isoquinolinone]
2. O=c1[nH]cc(Cc2ccc(Br)cc2)c2ccccc12 [Compound 13, 4-(4-Bromobenzyl)-1-isoquinolinone]

1. 216 to 218 °C
2. 180 to 182 °C

* * *

ENDPOINT_LABEL: melting point

[
  {
    "COMPOUND": "COc1cccc(Cc2cc3ccccc3c(=O)[nH]2)c1 [Compound 4, 3-(3-Methoxybenzyl)-1-isoquinolinone]",
    "ENDPOINT_LABEL": "melting point",
    "RESULT": "208 to 210 °C"
  },
  {
    "COMPOUND": "O=c1[nH]cc(Cc2cccc(F)c2)c2ccccc12 [Compound 11, 4-(3-Fluorobenzyl)-1-isoquinolinone]",
    "ENDPOINT_LABEL": "melting point",
    "RESULT": "132 to 134 °C"
  },
  {
    "COMPOUND": "O=c1[nH]c(Cc2ccccc2)cc2ccccc12 [Compound 5, 3-Benzyl-1-isoquinolinone]",
    "ENDPOINT_LABEL": "melting point",
    "RESULT": "193 to 195 °C"
  },
  {
    "COMPOUND": "CCC(c1ccccc1)c1cc2ccccc2c(=O)[nH]1 (stereo not shown) [Compound 3, 3-(1-Phenylpropyl)-1-isoquinolinone]",
    "ENDPOINT_LABEL": "melting point",
    "RESULT": "179 to 180 °C"
  }
]

For every listed record, write down its melting point.
1. O=c1[nH]c(Cc2cccc(O)c2)cc2ccccc12 [Compound 7, 3-(3-hydroxybenzyl)isoquinolinone]
2. N#Cc1cccc(Cc2c[nH]c(=O)c3ccccc23)c1 [Compound 12, 4-(3-Cyanobenzyl)-1-isoquinolinone]
3. O=c1[nH]c(Cc2ccc(F)cc2)cc2ccccc12 [Compound 6, 3-(4-Fluorobenzyl)-1-isoquinolinone]

["225 to 227 °C", "85 to 88 °C", "238 to 240 °C"]
